Origin of values: the NIST ThermoML archive (doi:10.1016/j.fluid.2010.01.002)

measurement_description: refractive index (Na D-line) (dimensionless)
settings: 298.15 K; 101.33 kPa; Liquid; Standard Abbe refractometry
The following compounds are shown together with reported refractive index values.
parameter_measured: refractive index

{"compound": "COS(=O)(=O)[O-].Cn1cc[n+](C)c1 [1,3-dimethylimidazolium methylsulfate]", "recorded_result": 1.481}
{"compound": "C[S+](C)[O-] [dimethyl sulfoxide]", "recorded_result": 1.4737}
{"compound": "CO", "recorded_result": 1.3272}
{"compound": "O", "recorded_result": 1.3325}
{"compound": "CC#N", "recorded_result": 1.3411}
{"compound": "CN(C)C=O [dimethylformamide]", "recorded_result": 1.4267}

---

settings: 308.15 K; 101.33 kPa; Liquid; Vibrating tube method
Please mark Satisfied if the recorded mass density is equal to or greater than 800 kg/m3, and Not satisfied if it falls below.

{"compound": "CC#N [acetonitrile]", "class_assignment": "Not satisfied"}
{"compound": "CN(C)C=O [dimethylformamide]", "class_assignment": "Satisfied"}
{"compound": "COS(=O)(=O)[O-].Cn1cc[n+](C)c1 [1,3-dimethylimidazolium methylsulfate]", "class_assignment": "Satisfied"}
{"compound": "C[S+](C)[O-] [dimethyl sulfoxide]", "class_assignment": "Satisfied"}

---

measurement_description: refractive index (Na D-line) (dimensionless)
settings: 328.15 K; 101.33 kPa; Liquid; Standard Abbe refractometry
Let's look at some compounds and their measured refractive index.

{"compound": "COS(=O)(=O)[O-].Cn1cc[n+](C)c1 [1,3-dimethylimidazolium methylsulfate]", "refractive index": 1.4732}
{"compound": "C[S+](C)[O-] [dimethyl sulfoxide]", "refractive index": 1.462}
{"compound": "CN(C)C=O [dimethylformamide]", "refractive index": 1.4144}
{"compound": "O", "refractive index": 1.3282}
{"compound": "CC#N", "refractive index": 1.3259}
{"compound": "CO", "refractive index": 1.3158}

---

settings: 318.15 K; 101.33 kPa; Liquid; Capillary tube (Ostwald / Ubbelohde) method
parameter_measured: log10(viscosity) (log10 of the value in mPa·s)

{"compound": "CN(C)C=O [dimethylformamide]", "log10(viscosity)": -0.16}
{"compound": "C[S+](C)[O-] [dimethyl sulfoxide]", "log10(viscosity)": 0.14}
{"compound": "COS(=O)(=O)[O-].Cn1cc[n+](C)c1 [1,3-dimethylimidazolium methylsulfate]", "log10(viscosity)": 1.50}
{"compound": "O", "log10(viscosity)": -0.22}
{"compound": "CO", "log10(viscosity)": -0.22}
{"compound": "CC#N", "log10(viscosity)": -0.53}

---

settings: 298.15 K; 101.33 kPa; Liquid; Capillary tube (Ostwald / Ubbelohde) method
± gives the expanded uncertainty stated by the source.
Entries and their viscosity
parameter_measured: viscosity

{"compound": "C[S+](C)[O-] [dimethyl sulfoxide]", "recorded_result": "1.979 ± 0.013 mPa·s"}
{"compound": "CN(C)C=O [dimethylformamide]", "recorded_result": "0.8605 ± 0.0067 mPa·s"}
{"compound": "CC#N", "recorded_result": "0.3431 ± 0.0047 mPa·s"}
{"compound": "COS(=O)(=O)[O-].Cn1cc[n+](C)c1 [1,3-dimethylimidazolium methylsulfate]", "recorded_result": "72.16 ± 0.59 mPa·s"}
{"compound": "O", "recorded_result": "0.8949 ± 0.0066 mPa·s"}
